apparent KD of MS2 coat protein for assorted sequences
System: MS2 coat protein
assay_protocol: apparent KD of MS2 coat protein; higher = weaker reporter binding
experimental_context: Eterna round: R107; input ligand: tryptophan 2.4 mM
Your answer should be a plain number; it is taken to be in nM.

Answered examples (4):
GAGUAGAGGACGGCCGCCACUGAACAUGAGGAUCACCCAUGUCGUGAUCCGUUGCCUGAAGAAGAUAGGACCGGGUCAUGUGCUC [Exclusion Tryptophan B GF 20] ... 25.5
AAUUAAAACUGAAGGAGCGUCGUGCGUGGGUGCGUCCCACAUGAGGAUCACCCAUGUGGUUGACAGGUAGGUCGCAGAAUAAUUU [Exclusion - Arginine B] ... 36.6
AGCACAUGAGGAUCACCCAUGUGUGGGUACCGAGGACCGGUACGGCCGCCACUCGCAGGACAUGAGGAUCACCCAUGUGCCGCCG [SSTA DOUBLE!!! :-D #7] ... 43.4
UACCGAUGAAGAAGGAGCGAUUUUAUGUUACAUGAGGAUCACCCAUGUGGACUAGGUGAAGAUCAGGUAGGUCGCUUCAUCGGUA [SSAB NP+V+V2 #20] ... 24.5

## Input Looking for the measured apparent KD of MS2 coat protein of GGCCCUGCGGGCGCCCGCAGGGCCGCGGAUACCAGCGAGGUCCAUCGCCCUUGGCAGCCGAACAUGAGGAUCACCCAUGUCGGUG [Same State - Theophylline A Attempt #8 (HarryS)] , can you help?
## Output 12.9

## Input AAUGAACAUGAGGAUCACCCAUGUCGUGAUACCAGCCGUAAGAGUGGCCCUUGGCAGCGCCAUGAGGACAACAACAUACAUGAGG [Same State Theophylline A] , same question.
## Output 24.8
